System Under Test: T1, CTLA4-his (UniProt P16410 36-161, limits assumed)
T1 construct: construct not described; also called Ag CTLA4-his; Antigen CTLA4-his; not shown: his tag
T1 sequence (looked up): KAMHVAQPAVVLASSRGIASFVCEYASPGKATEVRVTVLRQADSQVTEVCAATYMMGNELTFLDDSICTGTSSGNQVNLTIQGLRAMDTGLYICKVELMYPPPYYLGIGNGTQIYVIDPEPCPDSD
Method: SPR Biacore T200, antibody from supernatant captured by anti-human Fc, CTLA4-his injected
kon strictly under 300000 M⁻¹ s⁻¹ means true; at 300000 M⁻¹ s⁻¹ or over means false.

{"Binder": "Humanized Ab 15 (VH7 + VL3) (antibody, human IgG1, kappa, V domains shown, Humanized IgG1 derived from MAb A4) VH: QVQLVQSGAEVVKPGASVKISCKASGYKFTDHFINWVKQNPGQGLEWIGDINPNNGGTNSNQKFEGKATLTVDKSISTAYMELRRLRSDDTAVYYCARLRREYFYAMDYWGQGTLVTVSS VL: DIVMTQSPLSLPVTPGEPASISCRSSKSLLHSNGITYLYWYLQKPGQSPQLLIYQMSNLASGVPDRFSSSGSGTDFTLKISRVEAEDVGVYYCAQNLELPLTFGGGTKLEIKR", "Cat": "true"}
{"Binder": "chimeric IgG (antibody, V domains shown, Variable domains of MAb A4 on human IgG1 and kappa, expressed in HEK293; also called murine-human chimeric antibody derived from murine antibody A4) VH: EVQLRQSGPELVKPGTSVKISCKASGYKFTDHFINWVKQNHGKSLEWIGDINPNNGGTNSNQKFEGKATLTVDKSSSTAYMELRSLTSEDSAVYYCARLRREYFYAMDYWGQGTSVTVSS VL: DIVMTQAAFSNPVTLGTSASISCRSSKSLLHSNGITYLYWYLQKPGQSPQLLIYQMSNLASGVPDRFSSSGSGTDFTLRISRVEAEDVGVYYCAQNLELPLTFGAGTKLELKR", "Cat": "false"}
{"Binder": "Humanized Ab 4 (VH2 + VL1) (antibody, human IgG1, kappa, V domains shown, Humanized IgG1 derived from MAb A4, full length, HEK293) VH: QVQLVQSGAEVKKPGASVKVSCKASGYKFTDHFINWVRQAPGQGLEWIGDINPNNGGTNSNQKFEGRVTMTVDTSISTAYMELSRLRSDDTAVYYCARLRREYFYAMDYWGQGTLVTVSS VL: DIVMTQSPLSLPVTPGEPASISCRSSKSLLHSNGITYLYWYLQKPGQSPQLLIYQMSNLASGVPDRFSGSGSGTDFTLKISRVEAEDVGVYYCAQNLELPLTFGGGTKVEIKR", "Cat": "false"}

Lab note: next binder to report on.
Query: Item Humanized Ab 1 (VH1 + VL1) (antibody, human IgG1, kappa, V domains shown, Humanized IgG1 derived from MAb A4, full length, HEK293) VH: QVQLVQSGAEVKKPGASVKVSCKASGYKFTDHFINWVRQAPGQGLEWMGDINPNNGGTNSNQKFEGRVTMTRDTSISTAYMELSRLRSDDTAVYYCARLRREYFYAMDYWGQGTLVTVSS VL: DIVMTQSPLSLPVTPGEPASISCRSSKSLLHSNGITYLYWYLQKPGQSPQLLIYQMSNLASGVPDRFSGSGSGTDFTLKISRVEAEDVGVYYCAQNLELPLTFGGGTKVEIKR : kon beneath 300000 M⁻¹ s⁻¹, strictly?
Result: true
